System: Escherichia coli TOP10;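 also: peptides expressed intracellularly from a pBAD plasmid library in pooled LB shake-flask culture, induced with 0.3% L-arabinose, DNA abundance read by NGS, three biological replicates, DESeq2 with apeglm shrinkage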
Experiment: shrunken log2 fold change of peptide-encoding DNA abundance (4.5 h post-induction vs induction); higher = less antimicrobial activity (less host growth inhibition)
Details: time post-induction: 4.5 h; library: site-saturation at positions 5, 18, 19, 20
Readout label: shrunken log2 fold change
Answers are plain numbers.

Example sequences with recorded shrunken log2 fold change:
>  <Chain>
RRIRVRPPRLPRPRPRPQLFPRP

>  <shrunken log2 fold change>
0.229

$$$$
>  <Chain>
RRIRNRPPRLPRPRPRPAYVPRP

>  <shrunken log2 fold change>
-0.0369

$$$$

// for each sequence below, give its shrunken log2 fold change
1. RRIRFRPPRLPRPRPRPDRKPRP
2. RRIRCRPPRLPRPRPRPSPQPRP

a:
1. 0.00132
2. 0.445

// for each sequence below, give its shrunken log2 fold change
1. RRIRMRPPRLPRPRPRPYTKPRP
2. RRIRTRPPRLPRPRPRPNACPRP
3. RRIRMRPPRLPRPRPRPTWWPRP
4. RRIRVRPPRLPRPRPRPWWLPRP
5. RRIRARPPRLPRPRPRPPVYPRP
6. RRIRKRPPRLPRPRPRPTRSPRP

a:
[-0.0606, -0.0597, 0.596, -0.0366, 0.0965, 0.831]
